The measured values listed here are drawn from ChEMBL document CHEMBL1129818.

Exercise: for every item that follows, state its recorded EC50.
test system: MDCK; assay: Effective concentration required to determine Anti-influenza A virus Ishikawa/7/82 in MDCK cells by MTT assay; type: functional, cell-based; conditions: Canis lupus familiaris
Number only, in µg/mL; omit the unit.

The compound CC[C@H]1C[N+]2([O-])CCc3c([nH]c4ccccc34)[C@H]2C[C@@H]1/C(=C\OC)C(=O)OC (some centres not stated) , tested on MDCK, showed EC50 of 86.4

Log: MDCK, compound CC[C@H]1CN2CCc3c([nH]c4cccc(OC)c34)[C@H]2C[C@@H]1/C(=C\OC)C(=O)OC , EC50 = 0.5

// assay MDCK, entry CCO/C=C(\C(=O)OC)[C@H]1C[C@@H]2c3[nH]c4ccccc4c3CCN2C[C@@H]1CC , EC50 value = 0.9

====

test: Selectivity index for effective concentration to that of Cytotoxicity in MDCK cells by MTT assay; format: functional
Assay endpoint: Selectivity index
Answer using only a numeral; do not append any unit.

The reported value for CC[C@H]1CN2CCc3c(n(C)c4ccccc34)[C@H]2C[C@@H]1/C(=C\OC)C(=O)OC in terms of Selectivity index is 15.8

Short answer for CCO/C=C(\C(=O)OC)[C@H]1C[C@@H]2c3[nH]c4ccccc4c3CCN2C[C@@H]1CC : Selectivity index was 36.4

Record CC[C@H]1CN2CCc3c([nH]c4cccc(OC)c34)[C@H]2C[C@@H]1/C(=C\OC)C(=O)OC . Reported Selectivity index: 76.8

Entry under test: C=CC1CN2CCc3c([nH]c4ccccc34)C2C[C@@H]1/C(=C\OC)C(=O)OC (stereo not given in full) . Its Selectivity index was 14

====

test system: MDCK; test: Effective concentration required to determine Anti-influenza A virus Ishikawa/7/82 in MDCK cells by MTT assay; format: functional, cell-based; details: Canis lupus familiaris
Kindly supply the reported EC50 values for the records listed here.

Looking up CC[C@H]1CN2CCc3c([nH]c4ccccc34)[C@H]2C[C@@H]1/C(=C/OC)C(=O)O , I see its EC50 listed as > 39.2 mg/L

In plain terms, CC[C@@H]1CN2CCc3c([nH]c4ccccc34)[C@@H]2C[C@@H]1/C(=C\OC)C(=O)OC [CORYNANRHEIDINE] has a documented EC50 of > 45.1 mg/L

According to the records, this compound CC[C@H]1CN2Cc3c(nc4ccccc4c3O)[C@H]2C[C@@H]1/C(=C\OC)C(=O)OC displays EC50 of > 38.1 mg/L

====

system: MDCK; test: Cytotoxicity was measured by Anti-influenza A virus Ishikawa/7/82 in MDCK cells by MTT assay; format: functional; details: Canis lupus familiaris
Assay endpoint: CC50 (mg/L)
Unit mg/L implied. Number only.

Fill in: MDCK CC50 for CC[C@H]1CN2CCc3c([nH]c4ccccc34)[C@H]2C[C@@H]1/C(C=O)=C(/O)OC = 8.4

Considering CC[C@H]1CN2CCc3c([nH]c4ccccc34)[C@@H]2C[C@@H]1/C(=C/OC)C(=O)OC [DIHYDROCORYNANTHEINE] , its CC50 with MDCK was recorded as 86.3

Result for C=CC1CN2CCc3c([nH]c4ccccc34)C2C[C@@H]1/C(=C\OC)C(=O)OC (stereo partly specified) , tested on MDCK, CC50: 25.2

====

Record form. Attribute: EC50. Fill in for each entry.
test system: MDCK; test: Effective concentration required to determine Anti-influenza A virus Ishikawa/7/82 in MDCK cells by MTT assay; type: functional, cell-based; settings: Canis lupus familiaris
API: value field is a number in µg/mL; no unit string.

compound CC[C@H]1CN2CCc3c(n(C)c4ccccc34)[C@H]2C[C@@H]1/C(=C\OC)C(=O)OC , EC50 observed: 1.7

# EC50 (compound: C=CC1CN2CCc3c([nH]c4ccccc34)C2C[C@@H]1/C(=C\OC)C(=O)OC (some centres undefined) ) is 1.8

====

test system: MDCK; assay: Cytotoxicity was measured by Anti-influenza A virus Ishikawa/7/82 in MDCK cells by MTT assay; assay type: functional; conditions: Canis lupus familiaris
Assay endpoint: CC50 (µg/mL)
Field format: number, assumed µg/mL, no unit text.

Sample CC[C@H]1CN2CCc3c([nH]c4cccc(OC)c34)[C@H]2C[C@@H]1/C(=C\OC)C(=O)OC ; CC50 observed: 40.7

For this molecule ( C=C(C(=O)OC)[C@H]1C[C@@H]2c3[nH]c4ccccc4c3CCN2C[C@@H]1CC ), measured CC50 is 62.1

Input CC[C@H]1CN2CCc3c([nH]c4ccccc34)[C@H]2C[C@@H]1C(/C=N\C)=C(/O)OC . Output CC50: 3.9

Note to self: CC50 recorded for CC[C@H]1CN2Cc3c(nc4ccccc4c3O)[C@H]2C[C@@H]1/C(=C\OC)C(=O)OC was 38.1

CC50 for CC[C@H]1CN2CCc3c(n(C)c4ccccc34)[C@H]2C[C@@H]1/C(=C\OC)C(=O)OC is 25.3

The value of CC50 measured for the molecule CCO/C=C(\C(=O)OC)[C@H]1C[C@@H]2c3[nH]c4ccccc4c3CCN2C[C@@H]1CC turned out to be 32.4

Record summary for CC[C@@H]1CN2CCc3c([nH]c4ccccc34)[C@@H]2C[C@@H]1/C(=C\OC)C(=O)OC : reported CC50 = 45.1

Measured CC50, CC[C@H]1CN2CCc3c([nH]c4ccccc34)[C@H]2C[C@@H]1/C(=C/OC)C(=O)O : 39.2

====

test system: MDCK; assay: Effective concentration required to determine Anti-influenza A virus Ishikawa/7/82 in MDCK cells by MTT assay; format: functional, cell-based; conditions: Canis lupus familiaris
Task for the reader: assign each of the following molecules its reported EC50.

Simply: CC[C@H]1CN2CC[C@]3(O)C(=Nc4ccccc43)[C@H]2C[C@@H]1/C(=C\OC)C(=O)OC , MDCK, EC50 = > 100 µg/mL

Response field EC50 (MDCK) for item CC[C@H]1CN2CCc3c([nH]c4ccccc34)[C@H]2C[C@@H]1/C(C=O)=C(/O)OC : > 8.4 µg/mL

GET /values?item= CC[C@H]1CN2CCc3c([nH]c4ccccc34)[C@H]2C[C@@H]1C(/C=N\C)=C(/O)OC &system= MDCK returns EC50: > 3.9 µg/mL

Tested on MDCK: CC[C@H]1CN2CCc3c([nH]c4ccccc34)[C@@H]2C[C@@H]1/C(=C/OC)C(=O)OC [DIHYDROCORYNANTHEINE] . Observed EC50: > 86.3 µg/mL

====

test system: MDCK; assay: Cytotoxicity was measured by Anti-influenza A virus Ishikawa/7/82 in MDCK cells by MTT assay; type: functional; settings: Canis lupus familiaris
Assay endpoint: CC50

Entry CC[C@H]1C[N+]2(C)CCc3c([nH]c4ccccc34)[C@H]2C[C@@H]1/C(=C\OC)C(=O)OC (stereo partly drawn) under MDCK had CC50 of > 100 µg/mL

CC50 on MDCK for CC[C@H]1CN2CC[C@]3(O)C(=Nc4ccccc43)[C@H]2C[C@@H]1/C(=C\OC)C(=O)OC is > 100 µg/mL

Lab entry: MDCK assay, molecule CC[C@H]1C[N+]2([O-])CCc3c([nH]c4ccccc34)[C@H]2C[C@@H]1/C(=C\OC)C(=O)OC (stereo partly drawn) , CC50 = > 100 µg/mL
